Hello, the source for this data is PubChem BioAssay (NCI), in case you need it.

# System: HL-60(TB) leukemia
# ASSAY_SUMMARY: NCI tumour cell line growth inhibition, 48 h
PARAMETER_MEASURED: TGI

Answered cases to consult:
Lookup: # query: TGI | item CC(=O)Oc1cc(OC(C)=O)c(OC(C)=O)c2c1CC1C(=O)C3(CCc4ccccc43)C(=O)C1C2 (stereo not given) | system: HL-60(TB) leukemia
Found: 22.4 µM

Lookup: Form field: TGI recorded for Clc1ccc2c(NCCCNCc3ccc4c(c3)OCO4)ccnc2c1 with HL-60(TB) leukemia (enter value)
Found: 4.79 µM

Lookup: Please provide the recorded TGI for Cc1c(OCc2cccc3ccccc23)ccc2c(=O)cc(S)oc12 , tested on HL-60(TB) leukemia.
Found: 59.7 µM

Lookup: Requested read-out TGI, target or system HL-60(TB) leukemia, entry CN(C)C=Nc1cccc2c1NSN2
Found: > 100 µM

Lookup: // lookup TGI | system=HL-60(TB) leukemia | key= COc1ccc(C2=Nn3c(C)nnc3S/C2=C\c2ccc(-c3ccc([N+](=O)[O-])cc3)o2)cc1
Found: 73.5 µM

***
Lookup: Item O=C1C2Cc3ccccc3CN2C(=O)N1CCN1CCOCC1 (stereo not given) with HL-60(TB) leukemia - TGI?
Found: > 100 µM

Lookup: Record Cc1ccc(Sc2cc([N+](=O)[O-])cc(Sc3ccc(C)cc3)c2Sc2ccc(C)cc2)cc1 : what is its TGI with HL-60(TB) leukemia?
Found: > 100 µM

###

This section presents compounds with their documented TGI values.
# Tested on: KM12 colon
# ASSAY_SUMMARY: NCI tumour cell line growth inhibition, 48 h

Lookup: Provide the documented TGI with KM12 colon as the system for Cc1cc2c(C=O)[nH]nc2c(C#N)c1C
Found: > 100 µM

Lookup: So what TGI did O=C1OC(/C=C/c2ccccc2)C(=O)C1=O (centres undefined) get with KM12 colon?
Found: > 100 µM

Lookup: Tell me reported TGI for O=c1[nH]nc(-c2ccccc2)c2[nH]c3c(c12)CCCc1ccccc1-3 , tested with KM12 colon.
Found: 23.5 µM

Lookup: # value lookup — system KM12 colon, readout TGI, item Cc1nc2ccccc2n1Cc1ccc(NC(=S)NC2CCCCC2)cc1
Found: > 100 µM

Lookup: Item COc1ccc(-c2c3c(n(C4OC(COC(C)=O)C(OC(C)=O)C(OC(C)=O)C4OC(C)=O)c(=S)c2C#N)CCCC3)cc1 (centres undefined) with KM12 colon - TGI?
Found: > 100 µM

Now for a further compound.
Lookup: So what TGI did CCOC(=O)C(C(=O)OCC)C(=S)NC1OC(COC(C)=O)C(OC(C)=O)C(OC(C)=O)C1OC(C)=O (centres undefined) get with KM12 colon?
Found: > 100 µM

###

List of TGI values.
# Tested on: RXF 393 renal
# ASSAY_SUMMARY: NCI tumour cell line growth inhibition, 48 h

Below, each entry is followed by its recorded TGI result.
Lookup: Query (compound): Nc1c2c(c(O)c3c1=C(CO)C=N3)=NCCS2=O (stereo not drawn) ; field requested: TGI
Found: 17.5 µM

Lookup: Can you look up the measured TGI of COc1ccc(Nc2cnc3cc(N)ccc3n2)cc1OC for me?
Found: > 100 µM

// switching to the query compound
Lookup: Using the record for COc1ccc2oc(=O)c(-c3nc4ccccc4s3)cc2c1 , report its TGI.
Found: 31 µM

###

Parameter TGI: see the listing below.
# Tested on: SR leukemia
# ASSAY_SUMMARY: NCI tumour cell line growth inhibition, 48 h

A selection of reference data follows.
Lookup: Query: TGI; subject: O=c1oc2ccc([N+](=O)[O-])cc2cc1-c1csc(-c2ccccc2)n1
Found: > 100 µM

Lookup: Tell me the measured TGI of O=C1C2Cc3ccccc3CN2C(=O)N1CCN1CCOCC1 (stereo unspecified) , please.
Found: > 100 µM

Lookup: Give its TGI value. Item: O=C1CSC2(CC(/C=C/c3ccccc3[N+](=O)[O-])=NN2c2cccc(S(=O)(=O)O)c2)N1c1nc2ccccc2s1 (stereo unspecified)
Found: 63.1 µM

Lookup: Item under review: COc1cc(Cl)c(C)cc1NC(=O)c1cc2ccccc2cc1O . Reported TGI?
Found: 11.9 µM

Lookup: What measured TGI goes with CCCCCCCCC[C@@H]1C[C@H](O)[C@H](Cc2ccccc2)N1C(=O)OC(C)(C)C ?
Found: 46.2 µM

New cases:
Lookup: Can you look up the measured TGI of c1ccc(Oc2cnc3ccccc3n2)cc1 for me?
Found: > 100 µM

Lookup: Suppose we examine the molecule O=C(/C=C/c1ccco1)c1cccc(Nc2nc(Nc3ccccc3)nc(Nc3ccccc3)n2)c1 ; what TGI value has been reported?
Found: > 24.1 µM

Lookup: // TGI lookup, key: O=C1CCCC1C(O)(C(F)(F)Cl)C(F)(F)Cl (stereo unspecified)
Found: > 10 µM

Lookup: TGI lookup needed for C=C1[C@@H]2CCC(C)(C)[C@H]1CCC(=O)[C@@H]2C(=O)OC , thanks.
Found: > 100 µM

###

Entries and their TGI
# Tested on: CCRF-CEM leukemia
# ASSAY_SUMMARY: NCI tumour cell line growth inhibition, 48 h

Study these solved cases before continuing.
Lookup: So what does the record say about TGI for c1ccc2c(CCNC3=NCCO3)cccc2c1 ?
Found: > 10 µM

Lookup: Look up TGI: COc1ccc2c(c1)[n+](=O)c(C(=O)C/C(=N\NC(=O)C[N+](C)(C)C)C(=O)Nc1cc(Cl)ccc1Cl)c(C)n2O
Found: > 100 µM

Lookup: Bench note: what TGI did Cc1ccc(Sc2cc([N+](=O)[O-])cc(Sc3ccc(C)cc3)c2Sc2ccc(C)cc2)cc1 show?
Found: 65.4 µM

Lookup: Would you mind telling me what TGI value was observed for Cc1cccc2c1CC1(Cc3c(C)cccc3C1=O)C2=O ?
Found: > 100 µM

Lookup: Record request: TGI value, item O=C(Nc1ccc(-n2cc(-c3ccncc3)c(-c3ccc(Cl)c(O)c3)n2)cc1)c1ccc(Cl)c(C(F)(F)F)c1
Found: > 100 µM

Lookup: Entry under review: Cn1cc(C2=C(c3cn(CCCN/C(N)=N\[N+](=O)[O-])c4ccccc34)C(=O)NC2=O)c2ccccc21 . Reported TGI?
Found: 6.63 µM

Lookup: Need TGI of O=C1CN2CCN(CC2)CC(=O)Nc2ccc(cc2)S(=O)(=O)c2ccc(cc2)NC(=O)CN2CCN(CC2)CC(=O)Nc2ccc(cc2)S(=O)(=O)c2ccc(cc2)N1 , thanks.
Found: 1.81 µM

Lookup: Query (molecule): C=C1[C@@H]2CCC(C)(C)[C@H]1CCC(=O)[C@@H]2C(=O)OC ; field requested: TGI
Found: > 100 µM

Attention now turns to another entry.
Lookup: # input molecule: FC1(F)SC2CCCCCCCCCCC2C1(F)F (centres undefined) ; wanted: its TGI
Found: > 100 µM

###

# System: HOP-62 NSCLC
# ASSAY_SUMMARY: NCI tumour cell line growth inhibition, 48 h
PARAMETER_MEASURED: TGI

Lookup: Looking for the measured TGI of COC(=O)c1cc(OCc2cc(OCc3ccc(Br)cc3)cc(OCc3ccc(Br)cc3)c2)cc(OCc2cc(OCc3ccc(Br)cc3)cc(OCc3ccc(Br)cc3)c2)c1 , can you help?
Found: > 100 µM

Lookup: Data request, read-out TGI, for Nc1c(C(=O)Nc2cccc3ccccc23)sc2nc3c(cc12)CCCCCC3
Found: > 50 µM

Lookup: I have this compound here, C=CCOc1ccc2c(c1)CC[C@@H]1[C@@H]2CC[C@]2(C)C(=O)/C(=N/O)C[C@@H]12 , and I need its recorded TGI.
Found: > 49.3 µM

***
Lookup: Could you tell me which TGI is on file for C/C(=N\Nc1nc2ccccc2[nH]1)c1ccc2ccccc2n1 ?
Found: 8.12 µM

Lookup: I'd like to know its TGI. The compound in question is O=C1N(c2ccccc2)N=C2c3ccncc3C3=NN(c4ccccc4)C(=O)C123 (stereo unspecified)
Found: > 100 µM

Lookup: What value of measured TGI is listed for OCC1C2C=CC(O2)[C@H]1CO (stereo partly specified) ?
Found: > 100 µM

###

# Test system: UO-31 renal
# ASSAY_SUMMARY: NCI tumour cell line growth inhibition, 48 h
PARAMETER_MEASURED: TGI

Example entries and their recorded answers appear below.
Lookup: // map COc1ccc(/C=C2\CCC(CN(C)C)C2=O)cc1 (stereo not given) to recorded TGI (system: UO-31 renal)
Found: 15.5 µM

Lookup: Request body: readout TGI, system UO-31 renal, query O=C(/C=C/c1ccco1)c1cccc(Nc2nc(Nc3ccccc3)nc(Nc3ccccc3)n2)c1 . Return the value.
Found: > 69.6 µM

Lookup: Test system UO-31 renal; read-out TGI; what value for NC1=C(O)/C(=N/NS(=O)(=O)c2ccccc2)C(c2cccc(Cl)c2)O1 (stereo not given) ?
Found: 33.5 µM

Lookup: Look up TGI with UO-31 renal for this compound: CC(NC(=O)C1(N)CCCC1)C(=O)O (stereo not given)
Found: > 100 µM

Then this compound:
Lookup: Record lookup: for UO-31 renal, what TGI belongs to Cc1cccc(C)c1NC(=O)/C(CC(=O)CC(c1ccccc1)c1c(O)c2ccccc2oc1=O)=N/O (stereo not given) ?
Found: > 100 µM
